meta.source: the supplement of paper PMC10724198

Test system: Saccharomyces cerevisiae
Assay: protein stability index of tFT-peptide fusion (C-terminal peptide) (PSI (0-1 scale)); higher = more stable (slower turnover)
Details: genetic background: wild type; temperature: 30 C
# if value of protein stability index reaches 0.7, tag condition met; if it stays below, tag condition not met

VGMGRAPGPDPA: condition not met
IVENSLEEKERR: condition not met
PFIPPPRFPPPV: condition met
RLYCSWEFTFVQ: condition not met
LSAMVSYTRAPF: condition not met

Here is the next item to consider.
Check the entry PHSPSSPTIPSS : does protein stability index equal or exceed 0.7?
condition met

====

Tested on: Saccharomyces cerevisiae
Assay: protein stability index of tFT-peptide fusion (C-terminal peptide) (PSI (0-1 scale)); higher = more stable (slower turnover)
Conditions: genetic background: doa10 deletion; temperature: 30 C
# if value of protein stability index reaches 0.3, tag t; if it stays below, tag f

VASYVCIGVVWV: f
VFFCVLRVFFSA: f
CRLLYYIPCGLF: t
RVCWLRAFGFLV: f
LLFFGFVGSCVF: t
IFFSLFFFFLCN: t

Check the entry WACAWRGMVKVG : does protein stability index equal or exceed 0.3?
f

Check the entry TCVTLRYRLTFE : does protein stability index equal or exceed 0.3?
t

Check the entry LFRFVFLLFGFW : does protein stability index equal or exceed 0.3?
t

Check the entry VLPCSLVPLRLH : does protein stability index equal or exceed 0.3?
t

====

System: Saccharomyces cerevisiae
Test: protein stability index of tFT-peptide fusion (C-terminal peptide) (PSI (0-1 scale)); higher = more stable (slower turnover)
Details: genetic background: wild type; temperature: 37 C
reported metric: protein stability index
Respond numerically, and do not add a unit to the figure.

The recorded protein stability index for entry LVCLVASCVRWL equals 0.461

The recorded protein stability index for entry SRGLVPMANRYC equals 0.42

The recorded protein stability index for entry VMLIRVSRGIKC equals 0.473

====

Tested on: Saccharomyces cerevisiae
Experiment: protein stability index of tFT-peptide fusion in deletion strain of DAS1 (PSI (0-1 scale)); higher = more stable (slower turnover)
# if value of protein stability index reaches 0.6, tag true (1); if it stays below, tag false (0)

FSWRWTFRYWVN: true (1)
FSMRWTFRYEVN: false (0)
LVVYLSCVATIN: false (0)
LVVYFSCVACIN: false (0)
LVVYLRCVACIN: false (0)

Check the entry CRSCGYKFRTNN : does protein stability index equal or exceed 0.6?
true (1)

Check the entry PDKRNDLIKLLN : does protein stability index equal or exceed 0.6?
true (1)

Check the entry ARWRVGLWRGAST : does protein stability index equal or exceed 0.6?
true (1)

Check the entry KKHKKGQKQKPN : does protein stability index equal or exceed 0.6?
true (1)

Check the entry LKILRQKQNHQN : does protein stability index equal or exceed 0.6?
true (1)

Check the entry CTSCGYDFRTNN : does protein stability index equal or exceed 0.6?
true (1)

Check the entry CTSCGYSFRTNN : does protein stability index equal or exceed 0.6?
true (1)

Check the entry FSMRWTFRYWVS : does protein stability index equal or exceed 0.6?
false (0)

Check the entry ARWRVGLWRGIS : does protein stability index equal or exceed 0.6?
true (1)

Check the entry ARWRVGLWRAAS : does protein stability index equal or exceed 0.6?
true (1)

Check the entry FSMRWTFRYQVN : does protein stability index equal or exceed 0.6?
false (0)

Check the entry LVVYLSCVARIN : does protein stability index equal or exceed 0.6?
false (0)

====

Tested on: Saccharomyces cerevisiae
Experiment: protein stability index of tFT-peptide fusion (C-terminal peptide) (PSI (0-1 scale)); higher = more stable (slower turnover)
Details: genetic background: doa10 deletion; temperature: 30 C
Classification by protein stability index | ranges: lo = under 0.2, mid = from 0.2 up to 0.3, hi = 0.3 and over

Exercise: read the entry SLIFRVGKFKSL and state which class it falls under.
lo

====

# protein stability index annotations
Tested on: Saccharomyces cerevisiae
Test: protein stability index of tFT-peptide fusion (C-terminal peptide) (PSI (0-1 scale)); higher = more stable (slower turnover)
Details: genetic background: das1 deletion; temperature: 37 C
Respond numerically, and do not add a unit to the figure.

Example entries and their recorded answers appear below.
ARLTNYFVEWLS: 0.746
DFVYFPPIPVSS: 0.462
SFHTFFCPFFIL: 0.713

The recorded protein stability index for entry FFVYRFFSLSVC equals 0.247

The recorded protein stability index for entry LVGVLLAVWSVV equals 0.412

The recorded protein stability index for entry SLIFRVGKFKSL equals 0.738

The recorded protein stability index for entry PYHAPRPPFSLF equals 0.754

====

System: Saccharomyces cerevisiae
Assay: protein stability index of tFT-peptide fusion in deletion strain of DAS1 (PSI (0-1 scale)); higher = more stable (slower turnover)
reported metric: protein stability index
Respond numerically, and do not add a unit to the figure.

Example entries and their recorded answers appear below.
ARWRVGLWRGASF: 0.679
PDKRNHLIKLLNR: 0.668
ARWRVGLARGAS: 0.692
LKILRQKMNHQI: 0.67
AKWRVGLWRGAS: 0.692
LKILRQKMNHQNI: 0.685

The recorded protein stability index for entry LKILRGKMNHQN equals 0.674

The recorded protein stability index for entry FSMRWTERYWVN equals 0.572

The recorded protein stability index for entry VRGAVGGWRLVGV equals 0.659

The recorded protein stability index for entry KKHKKGQKQTIN equals 0.571

====

System: Saccharomyces cerevisiae
Experiment: protein stability index of tFT-peptide fusion (C-terminal peptide) (PSI (0-1 scale)); higher = more stable (slower turnover)
Conditions: genetic background: wild type; temperature: 30 C
# if value of protein stability index reaches 0.3, tag True; if it stays below, tag False

RRFKKTEIIKNN: False
WVGVVLLSVVGG: False
LQSVAFERGGPD: True
CVFFPFLGVCYV: True

Check the entry YFVLVRLICFLL : does protein stability index equal or exceed 0.3?
False

Check the entry FCCFFPFLWRVF : does protein stability index equal or exceed 0.3?
True

Check the entry FASFLFFCYIIF : does protein stability index equal or exceed 0.3?
False

Check the entry SCIVRTLVPCPS : does protein stability index equal or exceed 0.3?
False

Check the entry VCFLCIWLYSED : does protein stability index equal or exceed 0.3?
False

====

Tested on: Saccharomyces cerevisiae
Test: protein stability index of tFT-peptide fusion (C-terminal peptide) (PSI (0-1 scale)); higher = more stable (slower turnover)
Conditions: genetic background: wild type; temperature: 30 C
# protein stability index annotations
Respond numerically, and do not add a unit to the figure.

Example entries and their recorded answers appear below.
DMWSMFSFLYYV: 0.507
SPPPPPPRPPPP: 0.691
YCRGGGLAKREV: 0.689
LLLLPPPPPPPT: 0.684
ARRAPTFFSLWR: 0.658

The recorded protein stability index for entry DMWYLLWRVCYI equals 0.48

The recorded protein stability index for entry VVFQSLPCLSPP equals 0.758

The recorded protein stability index for entry VWSLGLSVVGLW equals 0.649

The recorded protein stability index for entry GCRRGGGMERAQ equals 0.649

The recorded protein stability index for entry WSRPVTFRIGLW equals 0.653

The recorded protein stability index for entry QGRTWGGCWGRG equals 0.649

The recorded protein stability index for entry RGGGRDGQTRGV equals 0.616

The recorded protein stability index for entry VEVRRMCSGQLG equals 0.714

The recorded protein stability index for entry FLLSFFGLVFFW equals 0.397

The recorded protein stability index for entry IRGGGGLGGGGV equals 0.703

The recorded protein stability index for entry NQTVEQPLPTSL equals 0.708

The recorded protein stability index for entry SSVNRTADGTKP equals 0.69

The recorded protein stability index for entry SLSVRTIFTSRS equals 0.71

====

System: Saccharomyces cerevisiae
Experiment: protein stability index of tFT-peptide fusion (C-terminal peptide) (PSI (0-1 scale)); higher = more stable (slower turnover)
Details: genetic background: wild type; temperature: 37 C
reported metric: protein stability index
Respond numerically, and do not add a unit to the figure.

Example entries and their recorded answers appear below.
LLCRVSRTRILC: 0.166
VFCMVLPFVLLT: 0.157
GVRCRLVIRVLG: 0.407

The recorded protein stability index for entry LEPFTGYTVIVM equals 0.261

The recorded protein stability index for entry RTSRPVRLFRIH equals 0.448

The recorded protein stability index for entry LLLLGVSLFLVR equals 0.426

The recorded protein stability index for entry LAPSRNRSVWLV equals 0.199

The recorded protein stability index for entry LGLCFFFYSLHS equals 0.599

The recorded protein stability index for entry VYGSLPVVVCRI equals 0.539

The recorded protein stability index for entry LILFMLLSFLTT equals 0.395

====

Tested on: Saccharomyces cerevisiae
Assay: protein stability index of tFT-peptide fusion in wild type (PSI (0-1 scale)); higher = more stable (slower turnover)
Settings: genetic background: wild type
# if value of protein stability index reaches 0.3, tag 1 (yes); if it stays below, tag 0 (no)

Check out these entries, answers already filled in.
CLVSLPILLFFR: 0 (no)
GLYMCSVGCWTR: 1 (yes)
KKHKKGYKQKIN: 0 (no)
RVTRLRAIYFRI: 0 (no)
CLVSLYILLFFR: 0 (no)

Check the entry CLVSLPILLFFT : does protein stability index equal or exceed 0.3?
0 (no)

Check the entry KKHKMGQKQKIN : does protein stability index equal or exceed 0.3?
0 (no)

Check the entry GLYMCHVGCWFR : does protein stability index equal or exceed 0.3?
0 (no)

Check the entry CTSCGYKFRTNT : does protein stability index equal or exceed 0.3?
1 (yes)

Check the entry RVTRLDAIYMRI : does protein stability index equal or exceed 0.3?
1 (yes)

Check the entry KKHKKGGKQKIN : does protein stability index equal or exceed 0.3?
0 (no)

Check the entry CTSCGYKIRTNN : does protein stability index equal or exceed 0.3?
0 (no)

Check the entry CLDSLPILLFFR : does protein stability index equal or exceed 0.3?
0 (no)

Check the entry ARWRVGLWRGASF : does protein stability index equal or exceed 0.3?
1 (yes)

Check the entry PDKVNHLIKLLN : does protein stability index equal or exceed 0.3?
0 (no)

Check the entry PWLAASFWRVVG : does protein stability index equal or exceed 0.3?
0 (no)

Check the entry RSLRVLVPLYFR : does protein stability index equal or exceed 0.3?
0 (no)

Check the entry ARWRVGLWRPAS : does protein stability index equal or exceed 0.3?
1 (yes)

Check the entry RVTRLDYIYFRI : does protein stability index equal or exceed 0.3?
0 (no)

Check the entry PDKRNTLIKLLN : does protein stability index equal or exceed 0.3?
0 (no)

Check the entry AITLPMCPPLLR : does protein stability index equal or exceed 0.3?
1 (yes)

Check the entry RLYMCSVGCWFR : does protein stability index equal or exceed 0.3?
1 (yes)
